The entries below come with measured IC50 values attached.
# test system: SCD5 (Homo sapiens)
# Construct: host or cells: Saccharomyces cerevisiae ole1Δ strain (W303 pdr1Δ pdr3Δ background), plasmid pRS316, TDH3 promoter
# Sequence (Q86SK9 whole entry): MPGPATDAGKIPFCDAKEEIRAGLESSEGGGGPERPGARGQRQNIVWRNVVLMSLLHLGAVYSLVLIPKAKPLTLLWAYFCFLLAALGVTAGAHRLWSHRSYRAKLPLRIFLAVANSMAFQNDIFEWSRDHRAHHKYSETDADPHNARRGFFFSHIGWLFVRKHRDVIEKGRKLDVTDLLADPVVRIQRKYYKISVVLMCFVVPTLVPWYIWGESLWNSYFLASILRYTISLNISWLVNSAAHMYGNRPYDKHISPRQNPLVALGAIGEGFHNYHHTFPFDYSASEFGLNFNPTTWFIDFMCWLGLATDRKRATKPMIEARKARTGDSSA
# experiment description: Growth inhibition of yeast (ole1Δ) expressing human SCD5 as the sole desaturase
# Format: cell-based
# study conditions: yeast strain with SCD5 plasmid, OD600 growth read at 40 h; read-out: SCD5 IC50
Please state the figure in nM; there is no need to write the unit.

Record request: IC50 value, item Cn1nc(NC(=O)N2CCC(Cc3ccc(Cl)c(F)c3)CC2)ccc1=O
330

Same lookup for CCn1nc(NC(=O)N2CCC(Cc3cc(F)cc(F)c3)CC2)ccc1=O , please.
1150

Same lookup for Cn1nc(NC(=O)N2CCC(Oc3cc(F)cc(F)c3)CC2)ccc1=O , please.
200

Same lookup for Cc1ccccc1OC1CCN(C(=O)Nc2ccc(=O)n(C)n2)CC1 , please.
280
